Below, IC50 values reported for Receptor-type tyrosine-protein kinase FLT3 (Homo sapiens) across several publications.

Below, 6 compounds whose answers are already recorded.
| compound | tested_system | readout_value |
| --- | --- | --- |
| CN1CCN(c2ccc3[nH]c(-c4cc(-c5ccc(NC(=O)Nc6ccccc6)cc5)[nH]n4)nc3c2)CC1 | Receptor-type tyrosine-protein kinase FLT3 (Homo sapiens) | < 50 nM |
| COC[C@H](C)Nc1ncc2c([C@H]3CC[C@H](C(C)=O)CC3)cc([C@H]3CC[C@H](O)CC3)n2n1 | Receptor-type tyrosine-protein kinase FLT3 (Homo sapiens) | 1000 to 10000 nM |
| O=c1c2cc(F)ccc2sc2c(N3CCNCC3)nc3ccccc3c12 | Receptor-type tyrosine-protein kinase FLT3 (Homo sapiens) | 51 to 200 nM |
| COc1ccc(C(=O)NC(=O)Nc2ccc3c(c2)NC(=O)/C3=C\c2[nH]c(C)c(C(=O)N3CCOCC3)c2C)c(F)c1 | Receptor-type tyrosine-protein kinase FLT3 (Homo sapiens) | 79.5 nM |
| COC[C@H](C)Nc1ncc2c(-c3ccnc(C)c3)cc([C@H]3CC[C@H](O)CC3)n2n1 | Receptor-type tyrosine-protein kinase FLT3 (Homo sapiens) | 1000 to 10000 nM |
| CCCC(C)Nc1ncc2c(=O)n([C@@H]3CCCN(C)C3)cc([C@H]3CC[C@H](O)CC3)c2n1 (some centres unmarked) | Receptor-type tyrosine-protein kinase FLT3 (Homo sapiens) | 1000 to 10000 nM |

Exercise: # return recorded IC50 for input Cc1nc(Nc2ncc3ccc4ncc(C(C)C)n4c3n2)ccc1N1CCNCC1.Cl
Solution: < 5 nM

Exercise: Hello, please tell me recorded IC50 for this one: c1ccc2cc(Nc3cc(CN4CCCC4)ccn3)ncc2c1
Solution: < 100 nM

Exercise: Identify measured IC50 corresponding to Cc1cc(C(=O)O)[nH]c1/C=C1\C(=O)Nc2cc(NC(=O)c3c[nH]cc(-c4ccc(F)cc4)c3=O)ccc21
Solution: > 1000 nM

Exercise: Answer with the recorded IC50 of Brc1cccc(Nc2n[nH]c3c2Cc2sccc2-3)c1 only.
Solution: 100 to 499 nM

Exercise: State its IC50 for this compound: Cc1cc(-c2cc([C@H]3CC[C@H](O)CC3)n3nc(N[C@@H](C)CC(F)(F)F)ncc23)cnn1
Solution: 100 to 1000 nM

Exercise: Give the reported value of IC50 for this record: O=C1Nc2c(NC(=O)c3cccn(-c4ccc(F)cc4)c3=O)cccc2/C1=C/c1ccc[nH]1
Solution: > 1000 nM

Exercise: // fetch IC50 given entry Cc1ccc(Nc2ccc(Cc3c[nH]c4ncc(Cl)cc34)c(F)n2)cn1
Solution: < 1000 nM

Exercise: Provide IC50 value for the following compound: CNC(=O)c1cc(-c2cc([C@H]3CC[C@H](O)CC3)n3nc(N[C@@H](C)COC(F)F)ncc23)cc(C)n1
Solution: 1000 to 10000 nM

Exercise: // Input: CCc1nc2c(N)ncc(-c3cnn(C4CCN(C(=O)C(C)C)CC4)c3)c2nc1N[C@@H]1CC[C@H](O)C1 . Output its IC50 only.
Solution: ≤ 10 nM

Exercise: Provide one value: measured IC50 of CC(C)(C)c1cc(NC(=O)Nc2ccc(Oc3ncnc4[nH]ncc34)cc2)n(-c2ccccc2)n1
Solution: 17 nM

Exercise: Give the reported value of IC50 for this record: CCc1nc2c(N)ncc(-c3ccc(N4CCC(N5CCN(C)CC5)CC4)nc3)c2nc1NC1CCOCC1
Solution: 10 to 100 nM

Exercise: Identify the reported IC50 for the following entry. COC[C@H](C)Nc1ncc2c(-c3cnn(C(C)(C)C(=O)N4CC[C@@H](O)C4)c3)cc([C@H]3CC[C@H](O)CC3)n2n1
Solution: 1000 to 10000 nM
